MEASURED TARGET: T1, CD32a-H131 (FcgRIIa-H131) (Homo sapiens, UniProt P12318)
T1 sequence (P12318 34-217 limits assumed): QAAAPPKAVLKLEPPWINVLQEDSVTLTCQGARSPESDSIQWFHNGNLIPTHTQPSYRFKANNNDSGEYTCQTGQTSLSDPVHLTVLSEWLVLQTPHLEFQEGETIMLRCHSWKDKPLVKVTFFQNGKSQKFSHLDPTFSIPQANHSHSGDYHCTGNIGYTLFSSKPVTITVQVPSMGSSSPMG
ASSAY OVERVIEW: SPR binding to FcgR-his: CD32a-H131
ASSAY CONDITIONS: 1 μM antibody, anti-his Fab captured FcgR-his
Below, each entry is listed with its recorded % Rmax, binding to hCD32a-H131.
Please state the figure in %; there is no need to write the unit.

mAb7-IgG2.3G1-AY-V27 (protein, left off: another chain or arm of the molecule) constant: ASTKGPSVFPLAPCSRSTSESTAALGCLVKDYFPEPVTVSWNSGALTSGVHTFPAVLQSSGLYSLSSVVTVPSSNFGTQTYTCNVDHKPSNTKVDKTVERKSCVECPPCPAPELLGGPSVFLFPPKPKDTLMISRTPEVTCVVVDVEHEDPEVKFNWYVDGVEVHNAKTKPREEQYNSTYRVVSVLTVLHQDWLNGKEYKCKVSNKALPAPIEKTISKAKGQPREPQVYTLPPSREEMTKNQVSLTCLVKGFYPSDIAVEWESNGQPENNYKTTPPVLDSDGSFFLYSKLTVDKSRWQQGNVFSCSVMHEALHNHYTQKSLSLSPGK | 68

Moving on to the next molecule.
Data request: Any idea what % Rmax, binding to hCD32a-H131 was measured for mAb11-IgG2.3 (protein, left off: another chain or arm of the molecule) constant: ASTKGPSVFPLAPCSRSTSESTAALGCLVKDYFPEPVTVSWNSGALTSGVHTFPAVLQSSGLYSLSSVVTVPSSNFGTQTYTCNVDHKPSNTKVDKTVERKSCVECPPCPAPPVAGPSVFLFPPKPKDTLMISRTPEVTCVVVDVSHEDPEVQFNWYVDGVEVHNAKTKPREEQFNSTFRVVSVLTVVHQDWLNGKEYKCKVSNKGLPAPIEKTISKTKGQPREPQVYTLPPSREEMTKNQVSLTCLVKGFYPSDIAVEWESNGQPENNYKTTPPMLDSDGSFFLYSKLTVDKSRWQQGNVFSCSVMHEALHNHYTQKSLSLSPGK ?
Data returned: 44
